Target: T1, Human BCMA (human, UniProt Q02223 1-54, limits assumed)
T1 construct: Soluble analyte in SPR; construct not described; also called huBCMA; B-cell maturation antigen
T1 sequence (looked up): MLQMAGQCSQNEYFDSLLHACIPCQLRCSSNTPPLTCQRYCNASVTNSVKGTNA
Assay: SPR, IgG immobilised, 37 C
measurement name: Kd (nM)

• L3.PY/L3.KY/H3.YA (antibody, V domains shown, IgG) VH: EVQLLESGGGLVQPGGSLRLSCAASGFTFGSYAMTWVRQAPGKGLEWVSAISGSGGNTFYADSVKGRFTISRDNSKNTLYLQMNSLRAEDTAVYYCARVSPIYAGMDYWGQGTLVTVSS VL: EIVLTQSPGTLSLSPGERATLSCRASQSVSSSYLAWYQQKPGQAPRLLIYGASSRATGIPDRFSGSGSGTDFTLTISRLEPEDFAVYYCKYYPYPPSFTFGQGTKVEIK = 0.28
• L3.PY/L1.PS/P6E01 (antibody, V domains shown, IgG) VH: EVQLLESGGGLVQPGGSLRLSCAASGFTFGSYAMTWVRQAPGKGLEWVSAISGSGGNTFYADSVKGRFTISRDNSKNTLYLQMNSLRAEDTAVYYCARVSPIASGMDYWGQGTLVTVSS VL: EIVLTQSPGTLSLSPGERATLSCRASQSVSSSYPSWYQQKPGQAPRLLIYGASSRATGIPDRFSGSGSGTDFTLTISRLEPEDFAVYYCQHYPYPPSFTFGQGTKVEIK = 0.45
• L3.PY/L1.AH/H2.LT (antibody, V domains shown, IgG) VH: EVQLLESGGGLVQPGGSLRLSCAASGFTFGSYAMTWVRQAPGKGLEWVSAISLTGGNTFYADSVKGRFTISRDNSKNTLYLQMNSLRAEDTAVYYCARVSPIASGMDYWGQGTLVTVSS VL: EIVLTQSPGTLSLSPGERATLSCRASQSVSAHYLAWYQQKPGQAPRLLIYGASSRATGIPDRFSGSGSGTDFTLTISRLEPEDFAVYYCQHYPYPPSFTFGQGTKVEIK = 0.39
• L3.PY/L1.FF/H2.LT (antibody, V domains shown, IgG) VH: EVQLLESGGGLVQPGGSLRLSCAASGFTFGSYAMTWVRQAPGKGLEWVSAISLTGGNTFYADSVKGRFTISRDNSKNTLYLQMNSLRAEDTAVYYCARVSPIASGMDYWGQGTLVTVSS VL: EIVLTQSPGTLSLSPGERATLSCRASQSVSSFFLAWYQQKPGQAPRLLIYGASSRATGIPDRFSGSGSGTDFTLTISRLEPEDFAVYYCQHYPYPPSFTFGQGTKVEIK = 0.51
• L3.PY/L3.KY/H2.LT (antibody, V domains shown, IgG) VH: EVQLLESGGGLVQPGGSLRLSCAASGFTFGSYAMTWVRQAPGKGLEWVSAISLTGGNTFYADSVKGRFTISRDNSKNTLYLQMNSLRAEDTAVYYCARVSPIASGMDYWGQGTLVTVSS VL: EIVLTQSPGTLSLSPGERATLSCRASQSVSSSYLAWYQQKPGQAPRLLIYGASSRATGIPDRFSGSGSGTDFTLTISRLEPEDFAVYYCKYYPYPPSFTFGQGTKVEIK = 0.31
• L3.PY/L3.KF/H3.YA (antibody, V domains shown, IgG) VH: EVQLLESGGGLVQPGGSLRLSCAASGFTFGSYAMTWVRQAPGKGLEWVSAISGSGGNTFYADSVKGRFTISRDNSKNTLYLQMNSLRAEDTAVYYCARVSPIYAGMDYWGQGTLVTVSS VL: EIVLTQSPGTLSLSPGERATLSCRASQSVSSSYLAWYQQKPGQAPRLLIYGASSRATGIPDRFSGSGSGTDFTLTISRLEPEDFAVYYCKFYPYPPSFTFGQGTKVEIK = 0.47
• L3.PY/L1.AH/H3.AE (antibody, V domains shown, IgG) VH: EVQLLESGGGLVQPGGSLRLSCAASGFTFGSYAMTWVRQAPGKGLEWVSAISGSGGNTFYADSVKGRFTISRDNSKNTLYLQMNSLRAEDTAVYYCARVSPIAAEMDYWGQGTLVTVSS VL: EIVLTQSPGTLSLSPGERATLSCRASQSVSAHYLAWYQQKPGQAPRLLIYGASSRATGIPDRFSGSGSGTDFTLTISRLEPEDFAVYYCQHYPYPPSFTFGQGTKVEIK = 0.52
• L3.PY/P6E01 (antibody, V domains shown, IgG) VH: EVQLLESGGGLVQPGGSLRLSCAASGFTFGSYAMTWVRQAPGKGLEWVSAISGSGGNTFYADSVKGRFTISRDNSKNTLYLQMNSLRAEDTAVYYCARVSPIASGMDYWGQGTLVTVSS VL: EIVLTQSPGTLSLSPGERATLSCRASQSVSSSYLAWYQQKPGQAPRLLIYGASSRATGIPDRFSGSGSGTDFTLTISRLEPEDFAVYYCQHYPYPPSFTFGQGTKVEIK = 0.74
• L3.PY/L3.KY/H2.HA (antibody, V domains shown, IgG) VH: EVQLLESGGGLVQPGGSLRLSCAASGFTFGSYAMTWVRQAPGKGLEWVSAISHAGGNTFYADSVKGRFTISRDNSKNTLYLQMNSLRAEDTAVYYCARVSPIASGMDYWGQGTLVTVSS VL: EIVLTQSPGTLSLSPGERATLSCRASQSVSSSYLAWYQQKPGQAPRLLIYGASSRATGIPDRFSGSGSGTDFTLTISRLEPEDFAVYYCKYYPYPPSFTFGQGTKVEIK = 0.49
• L3.PY/L1.FF/H3.AE (antibody, V domains shown, IgG) VH: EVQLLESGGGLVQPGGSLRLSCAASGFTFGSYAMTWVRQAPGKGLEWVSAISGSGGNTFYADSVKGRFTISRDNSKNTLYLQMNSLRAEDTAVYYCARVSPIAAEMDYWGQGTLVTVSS VL: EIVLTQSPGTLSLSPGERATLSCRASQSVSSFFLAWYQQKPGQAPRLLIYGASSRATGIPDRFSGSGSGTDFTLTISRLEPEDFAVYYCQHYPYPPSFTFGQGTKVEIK = 0.69
